assay details: CCTE_Mundy_HCI_Cortical_Synap_Neur_Matur_NeuronCount: CCTE's Synaptogenesis and Neurite Maturation Assay in rat cortical cells for Neuron Count, Mundy Lab (AID 2284242)
Records with an inconclusive call do not appear. Activity calls are given as the source filed them. How the source made its calls: active means hit-call score of the fitted dose curve at least 0.9, where 1 is the maximum; inconclusive means response in the unintended direction; inactive means score below 0.9.
Outcome codes: active, inactive

- Cc1ccc(-c2c(Cl)nc(C#N)n2S(=O)(=O)N(C)C)cc1: active
- CC(C)(C)c1ccc(CSc2cnn(C(C)(C)C)c(=O)c2Cl)cc1: active
- CCOC(=O)CC(SP(=S)(OC)OC)C(=O)OCC (stereo not drawn): active
- CN(C)C(=S)SSC(=S)N(C)C: active
- CO/C=C(/C(=O)OC)c1ccccc1Oc1cc(Oc2ccccc2C#N)ncn1: active
- COP(=S)(OC)Oc1nc(Cl)c(Cl)cc1Cl: active
- COP(N)(=O)SC (stereo not drawn): inactive
- COC(=O)N(OC)c1ccccc1COc1ccn(-c2ccc(Cl)cc2)n1: active

###

Read-out: Human Leukocyte Antigen - DR isotype (HLADR), HLA-DRA (gene 3122)
assay details: BSK_BE3C_HLADR: BioMAP Diversity Plus: BE3C Assay for Human Leukocyte Antigen - DR isotype (HLADR) Biomarker Activity (AID 2283032)
run conditions: primary human bronchial epithelial cells; actives raise or lower the signal
The source made the active and inactive calls. Rule for the calls: active = hit-call score of the fitted dose curve at least 0.9, where 1 is the maximum; inactive = score below 0.9.
Outcome codes: YES for active, NO for inactive

- Oc1ccccc1-c1ccccc1: NO
- C#CCOS(=O)OC1CCCCC1Oc1ccc(C(C)(C)C)cc1 (configuration not stated): YES
- COc1nc(C)nc(NC(=O)NS(=O)(=O)c2ccccc2CCC(F)(F)F)n1: NO
- O=C(O)COc1nc(Cl)c(Cl)cc1Cl: NO
- C=CC1(C)OC(=O)N(c2cc(Cl)cc(Cl)c2)C1=O (configuration not stated): NO
- N#CC(CCc1ccc(Cl)cc1)(Cn1cncn1)c1ccccc1 (configuration not stated): YES
- C=CCC1=C(C)[C@@H](OC(=O)[C@@H]2[C@@H](C=C(C)C)C2(C)C)CC1=O: YES
- CNC(=O)ON=CC(C)(C)SC: NO
- Cc1cc(Cl)ccc1OCC(=O)O: NO
- CCCCOC(=O)c1ccccc1C(=O)OCCCC: NO
- CC(C)Oc1cc(-n2nc(C(C)(C)C)oc2=O)c(Cl)cc1Cl: YES
- COC(=O)C=C(C)OP(=O)(OC)OC: NO

###

assay details: ATG_CRE_CIS: Attagene CIS-FACTORIAL HepG2 Assay for human cAMP Responsive Element (CRE) binding protein 3 (AID 2282926)
run conditions: HepG2 CRE cis-reporter, Attagene multiplexed mRNA; actives raise or lower the signal
Activity calls are given as the source filed them. Rule for the calls: active = hit-call score of the fitted dose curve at least 0.9, where 1 is the maximum; inactive = score below 0.9.
Outcome codes: active, inactive

* Cc1cc(Cl)ccc1OCC(=O)O | inactive
* CC(C)(C)c1ccc(CSc2cnn(C(C)(C)C)c(=O)c2Cl)cc1 | active
* CCCN(CCC)c1c([N+](=O)[O-])cc(S(N)(=O)=O)cc1[N+](=O)[O-] | inactive
* N#Cc1cc(Br)c(O)c(Br)c1 | active
* COc1nc(NC(C)C)nc(NC(C)C)n1 | inactive
* CCON=C(CC)C1=C(O)CC(c2c(C)cc(C)cc2C)CC1=O (stereo unspecified) | inactive
* O=C(O)c1nc(Cl)ccc1Cl | inactive
* CC(Oc1ccc(Cl)cc1Cl)C(=O)O (stereo unspecified) | inactive
* COC(=O)C=C(C)OP(=O)(OC)OC | inactive
* CNC(=S)S | inactive
* O=C(O)COc1nc(Cl)c(Cl)cc1Cl | inactive
* CCCCOC(=O)c1ccccc1C(=O)OCCCC | inactive
* CCNc1nc(Cl)nc(NC(C)C)n1 | inactive
* CCOP(=S)(OCC)SCn1c(=O)oc2cc(Cl)ccc21 | active
* COC(=O)c1ccccc1C(=O)OC | inactive
* C#CCOS(=O)OC1CCCCC1Oc1ccc(C(C)(C)C)cc1 (stereo unspecified) | active
* CN(C)C(=S)SSC(=S)N(C)C | inactive
* OC(c1ccc(Cl)cc1)(c1cncnc1)c1ccccc1Cl (stereo unspecified) | inactive
* COc1nc(C)nc(NC(=O)NS(=O)(=O)c2ccccc2CCC(F)(F)F)n1 | inactive
* COP(=S)(OC)Oc1nc(Cl)c(Cl)cc1Cl | inactive
* COc1ccc(C(c2ccc(OC)cc2)C(Cl)(Cl)Cl)cc1 | inactive

###

assay details: CCTE_Mundy_HCI_Cortical_Synap_Neur_Matur_SynapseCount: CCTE's Synaptogenesis and Neurite Maturation Assay in rat cortical cells for Synapse Count, Mundy Lab (AID 2284218)
Procedure: CCTE_Mundy_HCI_Cortical_Synap&Neurite_Matur is a multiplexed, cell-based-readout assay that uses rat primary cortical cells with measurements taken at 288.33 hours after chemical dosing in a microplate: 96-well plate.CCTE_Mundy_HCI_Cortical_Synap_Neur_Matur_SynapseCount is one of eight components of the CCTE_Mundy_HCI_Cortical_Synap&Neurite_Matur assay. […]
Calls of active or inactive are those of the source. Rule for the calls: active = hit-call score of the fitted dose curve at least 0.9, where 1 is the maximum; inactive = score below 0.9.
Measured AC50 values are reported for all entries that follow.
measurement type: AC50

- N#Cc1nn(-c2c(Cl)cc(C(F)(F)F)cc2Cl)c(N)c1S(=O)C(F)(F)F (stereo not drawn): 3.22 µM (active)
- CN(C)C(=S)SSC(=S)N(C)C: 0.0587 µM (active)
- COP(=S)(OC)Oc1nc(Cl)c(Cl)cc1Cl: 22.4 µM (active)

###

assay details: CCTE_Padilla_ZF_144hpf_TERATOSCORE: (Legacy) CCTE's 144 Hour Post-fertilization zebrafish Assay Teratoscore, Padilla Lab (AID 2283679)
Active and inactive are the calls of the source. Rule for the calls: active = hit-call score of the fitted dose curve at least 0.9, where 1 is the maximum; inactive = score below 0.9.
Outcome codes: true = active, false = inactive

• CCCCOC(=O)c1ccccc1C(=O)OCCCC = true
• COc1nc(C)nc(NC(=O)NS(=O)(=O)c2ccccc2Cl)n1 = false
• Cc1cc(Cl)ccc1OCC(=O)O = false
• CS/C(C)=N/OC(=O)N(C)SN(C)C(=O)O/N=C(\C)SC = true
• C=CCC1=C(C)[C@@H](OC(=O)[C@@H]2[C@@H](C=C(C)C)C2(C)C)CC1=O = true
• CCc1nn(C)c(C(=O)NCc2ccc(C(C)(C)C)cc2)c1Cl = true
• CC1=C(C(=O)Nc2ccccc2)SCCO1 = true
• CCOP(=S)(OCC)SCn1c(=O)oc2cc(Cl)ccc21 = true
• Cc1ccc(-c2c(Cl)nc(C#N)n2S(=O)(=O)N(C)C)cc1 = true
• CCCCNC(=O)OCC#CI = true
• CNC(=O)ON=CC(C)(C)SC = true
• CC(C)C1(C)N=C(c2nc3ccccc3cc2C(=O)O)NC1=O (stereo not drawn) = false
• O=C(O)COc1nc(Cl)c(Cl)cc1Cl = false
• CC(Oc1ccc(Cl)cc1Cl)C(=O)O (stereo not drawn) = true
• N#Cc1nn(-c2c(Cl)cc(C(F)(F)F)cc2Cl)c(N)c1S(=O)C(F)(F)F (stereo not drawn) = true
• O=C(Nc1ccccc1)Nc1ccnc(Cl)c1 = true
• CC(C)Oc1cc(-n2nc(C(C)(C)C)oc2=O)c(Cl)cc1Cl = true
• COC(=O)C(C)Oc1ccc(Oc2ccc(Cl)cc2Cl)cc1 (stereo not drawn) = true
• N#Cc1cc(Br)c(O)c(Br)c1 = true
• COc1cnc(OC)n2nc(NS(=O)(=O)c3c(OCC(F)F)cccc3C(F)(F)F)nc12 = false
• CCCC1COC(Cn2cncn2)(c2ccc(Cl)cc2Cl)O1 (stereo not drawn) = true
• CCOc1cc(Oc2ccc(C(F)(F)F)cc2Cl)ccc1[N+](=O)[O-] = true
• Cc1c(F)c(F)c(COC(=O)C2C(/C=C(\Cl)C(F)(F)F)C2(C)C)c(F)c1F (stereo not drawn) = true
• COC(=O)C=C(C)OP(=O)(OC)OC = true
• COP(N)(=O)SC (stereo not drawn) = false
• COc1nc(C)nc(NC(=O)NS(=O)(=O)c2ccccc2CCC(F)(F)F)n1 = false
• CCOC(=O)CC(SP(=S)(OC)OC)C(=O)OCC (stereo not drawn) = true
• OC(c1ccc(Cl)cc1)(c1cncnc1)c1ccccc1Cl (stereo not drawn) = true

###

Read-out: Vascular endothelial growth factor receptor 2 (Homo sapiens) (UniProt P35968)
assay details: BSK_4H_VEGFRII: BioMAP Diversity Plus: 4H Assay for Vascular endothelial growth factor receptor 2 (VEGFR2) Biomarker Activity (AID 2283031)
run conditions: primary human endothelial cells (HUVEC); actives raise or lower the signal
Calls of active or inactive are those of the source. How the source made its calls: active means hit-call score of the fitted dose curve at least 0.9, where 1 is the maximum; inactive means score below 0.9.
measurement type: outcome

- CCON=C(CC)C1=C(O)CC(c2c(C)cc(C)cc2C)CC1=O (stereo unspecified): inactive
- COC(=O)c1ccccc1C(=O)OC: inactive
- COC(=O)N(OC)c1ccccc1COc1ccn(-c2ccc(Cl)cc2)n1: inactive
- CC1COC(Cn2cncn2)(c2ccc(Oc3ccc(Cl)cc3)cc2Cl)O1 (stereo unspecified): inactive
- Cc1c(F)c(F)c(COC(=O)C2C(/C=C(\Cl)C(F)(F)F)C2(C)C)c(F)c1F (stereo unspecified): inactive
- COP(N)(=O)SC (stereo unspecified): inactive

The reported numbers originate from PubChem BioAssay (EPA / NIEHS).
